target: M1 muscarinic receptor (Homo sapiens, UniProt P11229); construct: expressed in transfected cells; host or cells: CHO (M1-CHO); experiment: Functional mobilization of intracellular calcium (FLIPR) in M1-CHO cells; assay type: cell-based; details: M1 receptor, calcium mobilization; read-out: M1 Efficacy
Sequence (P11229 whole entry): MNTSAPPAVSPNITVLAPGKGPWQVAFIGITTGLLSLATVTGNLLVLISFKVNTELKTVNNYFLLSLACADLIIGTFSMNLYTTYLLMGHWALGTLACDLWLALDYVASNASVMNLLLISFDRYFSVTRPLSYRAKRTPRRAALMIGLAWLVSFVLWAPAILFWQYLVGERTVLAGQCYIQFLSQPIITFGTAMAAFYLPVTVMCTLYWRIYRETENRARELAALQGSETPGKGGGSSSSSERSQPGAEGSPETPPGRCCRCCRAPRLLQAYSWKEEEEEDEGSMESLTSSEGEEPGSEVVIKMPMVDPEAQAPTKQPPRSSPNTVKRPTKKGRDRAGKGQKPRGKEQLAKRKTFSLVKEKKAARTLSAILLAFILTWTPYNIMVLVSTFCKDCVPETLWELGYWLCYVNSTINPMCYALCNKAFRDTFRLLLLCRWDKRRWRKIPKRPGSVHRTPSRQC
property measured: Emax

For orientation, consider the following solved cases.
# molecule, assay target, obs value
rows = [
    ("CCOC(=O)N1C2CCC1CC(N1CCC3(CC1)C[C@H](NC(C)=O)c1ccccc13)C2 (stereo partly shown)", "M1 muscarinic receptor (Homo sapiens, UniProt P11229)", "< 65%"),
    ("Fc1ccc2c(c1)C1(CCN(C3CCCCC3)CC1)CN2", "M1 muscarinic receptor (Homo sapiens, UniProt P11229)", "65 to 85%"),
]

Req: Provide only the value of recorded Emax for CCOC(=O)N1C2CCC1CC(N1CCC3(CC1)CN(C(=O)NC(C)C)c1ccc(F)cc13)C2 (stereo not shown)
Resp: 65 to 85%

Req: Provide only the value of recorded Emax for "Clc1ccc2c(c1)C1(CCO2)CCN(C[C@H]2C[C@H]3C=C[C@H]2C3)CC1"
Resp: < 65%

Req: Provide only the value of recorded Emax for "CC(=O)N1CC2(CCN(C3CCOCC3)CC2)c2cc(F)ccc21"
Resp: < 65%

Req: Provide only the value of recorded Emax for CN(C)C(=O)N1CC2(CCN(C3CC4CCC(C3)N4C(=O)OCCF)CC2)c2cc(F)ccc21 (stereo not shown)
Resp: > 85%

Req: Provide only the value of recorded Emax for "CCOC(=O)N1CCC(N2CCC3(CC2)CN(C(C)=O)c2ccc(-c4ccncc4)cc23)CC1"
Resp: < 65%

Req: Provide only the value of recorded Emax for "CC(=O)N[C@H]1CC2(CCN(C3CCOCC3)CC2)c2ccccc21"
Resp: 65 to 85%

Req: Provide only the value of recorded Emax for COC(=O)N1CC2(CCN(C3CC4CCC(C3)N4C(=O)OC(C)C)CC2)c2cc(F)ccc21 (stereo not shown)
Resp: 65 to 85%

Req: Provide only the value of recorded Emax for CCOC(=O)N1C2CCC1CC(N1CCC3(CC1)CN(C(=O)c1ccncc1)c1ccc(F)cc13)C2 (stereo not shown)
Resp: > 85%

Req: Provide only the value of recorded Emax for CCOC(=O)N1C2CCC1CC(N1CCC3(CC1)CN(C(=O)C1CCC1)c1ccc(F)cc13)C2 (stereo not shown)
Resp: > 85%

Req: Provide only the value of recorded Emax for CCCOC(=O)N1C2CCC1CC(N1CCC3(CC1)CN(S(C)(=O)=O)c1ccc(F)cc13)C2 (stereo not shown)
Resp: > 85%

Req: Provide only the value of recorded Emax for "CC(=O)N1CC2(CCN(C3CCN(C(=O)OC(C)C)CC3)CC2)c2cc(F)ccc21"
Resp: 65 to 85%

Req: Provide only the value of recorded Emax for "CCOC(=O)N1CCC(N2CCC3(CC2)CN(C(C)=O)c2ccc(OC)cc23)CC1"
Resp: < 65%

Req: Provide only the value of recorded Emax for "CC(=O)N1CC2(CCN(CC3CCN(C(=O)O[C@@H]4CCOC4)CC3)CC2)c2cc(F)ccc21"
Resp: 65 to 85%

Req: Provide only the value of recorded Emax for "CCOC(=O)N1CCC(N2CCC3(CC2)CN(C(C)=O)c2ccc(-c4cccnc4)cc23)CC1"
Resp: 65 to 85%
